Test summary: acute toxicity test in mice (Litchfield and Wilcoxon)
Format: in vivo, mouse
Run parameters: mouse, in vivo, po., 14 days observation
Readout type: LD50 at 336 h (mg/kg)
Answers are plain numbers, in mg/kg.

State the recorded LD50 at 336 h for every item in the following list.
1. CC(C)N(CC(O)CO/N=C1\CCC\C1=C/c1ccccc1)C(C)C (racemic) [Example 21]
2. CC(C)(C)NCC(O)CO/N=C1\CCCC\C1=C/c1ccccc1Cl (racemic) [Example 23]

A)
1: 700; 2: 130

State the recorded LD50 at 336 h for every item in the following list.
1. COc1ccc(/C=C2\CCCC\C2=N/OCC(O)CNC2CC2)cc1 (racemic) [Example 40]
2. OC(CO/N=C1\CCCC\C1=C/c1ccccc1)CN1CCCC1 (racemic) [Example 8]

A)
1. 800
2. 800

----------
Test summary: acute toxicity test in mice (Litchfield and Wilcoxon)
Assay type: in vivo, mouse
Run parameters: mouse, in vivo, po., 14 days observation
Readout type: LD50 at 336 h (mg/kg)
Numbers only, in mg/kg.

{"columns": ["Molecule", "LD50 at 336 h [mg/kg]"],
 "data": [
  ["CCCCNCC(O)CO/N=C1\\CCCC\\C1=C/c1ccc(Cl)cc1 (racemic)", 1300],
  ["CC(C)N(CC(O)CO/N=C1\\CCCCCC\\C1=C/c1ccccc1)C(C)C (racemic)", 800]
]}

State the recorded LD50 at 336 h for every item in the following list.
1. COc1ccc(/C=C2\CCCCC\C2=N/OCC(O)CNC(C)C)cc1 (racemic)
2. CC(C)(C)NCC(O)CO/N=C1\CCCC\C1=C/c1ccccc1 (racemic)

A)
1. 1000
2. 600

----------
Record form. Attribute: LD50 at 336 h. Fill in for each entry.
Test summary: acute toxicity test in mice (Litchfield and Wilcoxon)
Format: in vivo, mouse
Run parameters: mouse, in vivo, po., 14 days observation
Numbers only, in mg/kg.

Past entries and their recorded results:
{"columns": ["Molecule", "LD50 at 336 h (mg/kg)"],
 "data": [
  ["CCN(CC)CC(O)CO/N=C1\\CCCCC\\C1=C/c1ccc(OC)cc1 (racemic) [Example 44]", 600],
  ["CC(C)(C)NCC(O)CO/N=C1\\CCC\\C1=C/c1ccccc1 (racemic) [Example 22]", 900],
  ["CC(C)CNCC(O)CO/N=C1\\CCCC\\C1=C/c1ccc(Cl)cc1 (racemic) [Example 30]", 1100]
]}

According to the records, this molecule OC(CO/N=C1\CCCC\C1=C/c1ccccc1)CN1CCC(Cc2ccccc2)CC1 (racemic) [Example 54] displays LD50 at 336 h of 600

----------
Tested on: aconitine-induced ECG alterations
Test summary: animal or person
Type: in vivo, rat
Run parameters: Rattus norvegicus, iv, read-out: ED50 iv. (antiarrhythmic)
Readout type: ED50
Give your result as the value with the unit written after it.

State the recorded ED50 for every item in the following list.
1. CC(C)N(CC(O)CO/N=C1\CCCCCC\C1=C/c1ccccc1)C(C)C (racemic) [Example 19]
2. CCCNCC(O)CO/N=C1\CCCC\C1=C/c1c(Cl)cccc1Cl (racemic) [Example 35]

A)
3.29 mg/kg
1.84 mg/kg

State the recorded ED50 for every item in the following list.
1. CC(C)(C)NCC(O)CO/N=C1\CCCC\C1=C/c1ccccc1Cl (racemic) [Example 23]
2. C=C[C@H]1C[N@@]2CC[C@H]1C[C@@H]2[C@@H](O)c1ccnc2ccc(OC)cc12 [Quinidine, reference compound]

A)
["0.36 mg/kg", "9.85 mg/kg"]

----------
Test system: hexobarbital narcosis
Test summary: narcosis potentiating effect (hexobarbital sleeping time)
Run parameters: Mus musculus, po, read-out: ED50 (narcosis potentiation)
Readout type: log10 of ED50 (log10 of the value in mg/kg)
Scale: decimal log of ED50, ED50 in mg/kg.

Past entries and their recorded results:
{"columns": ["Compound", "System", "Numeric value"],
 "data": [
  ["CCCCNCC(O)CO/N=C1\\CCCC\\C1=C/c1ccc(Cl)cc1 (racemic)", "hexobarbital narcosis", 1.48],
  ["COc1ccc(/C=C2\\CCCCC\\C2=N/OCC(O)CNC2CC2)cc1 (racemic)", "hexobarbital narcosis", 1.16],
  ["CC(C)(C)NCC(O)CO/N=C1\\CCCC\\C1=C/c1ccccc1Cl (racemic)", "hexobarbital narcosis", 1.20],
  ["CCCC(C)(COC(N)=O)COC(N)=O [Meprobamate, reference compound]", "hexobarbital narcosis", 2.41],
  ["COc1ccccc1/C=C1\\CCCC\\C1=N/OCC(O)CN1CCOCC1 (racemic)", "hexobarbital narcosis", 1.70],
  ["OC(CO/N=C1\\CCCC\\C1=C/c1ccccc1)CN1CCCCC1 (racemic)", "hexobarbital narcosis", 1.48]
]}

State the recorded log10 of ED50 for every item in the following list.
1. CC(C)N(CC(O)CO/N=C1\CCCCC\C1=C/c1ccccc1)C(C)C (racemic)
2. CCCN(CCC)CC(O)CO/N=C1\CCCC\C1=C/c1ccc(Cl)c(Cl)c1 (racemic)

A)
[1.90, 2.16]

----------
Record form. Attribute: TI (therapeutic index). Fill in for each entry.
System: hexobarbital narcosis
Test summary: narcosis potentiating effect (hexobarbital sleeping time)
Run parameters: narcosis potentiation, mice, po.

State the recorded TI (therapeutic index) for every item in the following list.
1. CN1CCN(CC(O)CO/N=C2\CCCC\C2=C/c2c(Cl)cccc2Cl)CC1 (racemic) [Example 36]
2. CCCNCC(O)CO/N=C1\CCCCC\C1=C/c1ccc(OC)cc1 (racemic) [Example 43]
3. CC(C)N(CC(O)CO/N=C1\CCCCC\C1=C/c1ccccc1)C(C)C (racemic) [Example 14]
4. CCCCNCC(O)CO/N=C1\CCCC\C1=C/c1ccc(Cl)cc1 (racemic) [Example 29]

A)
[50, 16, 11, 43]

----------
Test summary: acute toxicity test in mice (Litchfield and Wilcoxon)
Type: in vivo, mouse
Run parameters: mouse, in vivo, po., 14 days observation
Record form. Attribute: LD50 at 336 h. Fill in for each entry.

Past entries and their recorded results:
{"columns": ["Compound", "LD50 at 336 h"],
 "data": [
  ["CCCCCCNCC(O)CO/N=C1\\CCCC\\C1=C/c1ccccc1 (racemic)", "> 1000 mg/kg"],
  ["OC(CO/N=C1\\CCCC\\C1=C/c1ccccc1)CN1CC=C(c2ccccc2)CC1 (racemic)", "> 1000 mg/kg"]
]}

Now consider a different compound.
According to the records, this compound COc1ccc(/C=C2\CCCCC\C2=N/OCC(O)CNC2CC2)cc1 (racemic) displays LD50 at 336 h of > 1000 mg/kg

----------
Test summary: acute toxicity test in mice (Litchfield and Wilcoxon)
Assay type: in vivo, mouse
Run parameters: mouse, in vivo, po., 14 days observation
Readout type: LD50 at 336 h

Past entries and their recorded results:
{"columns": ["Molecule", "LD50 at 336 h"],
 "data": [
  ["O=C(OC(CO/N=C1\\CCCCCC\\C1=C/c1ccccc1)CN1CCOCC1)c1ccccc1 (racemic) [Example 69]", "> 1000 mg/kg"],
  ["OCCN1CCN(CC(O)CO/N=C2\\CCCC\\C2=C/c2ccccc2)CC1 (racemic) [Example 13]", "> 1000 mg/kg"]
]}

Now consider a different molecule.
According to the records, this molecule CCCNCC(O)CO/N=C1\CCCC\C1=C/c1c(Cl)cccc1Cl (racemic) [Example 35] displays LD50 at 336 h of 600 mg/kg

----------
Tested on: aconitine-induced ECG alterations
Test summary: animal or person
Type: in vivo, rat
Run parameters: Rattus norvegicus, iv, read-out: Effect % (antiarrhythmic)
Could you label it criterion met if measured change in vivo at 4 mg/kg is -40% or higher, and criterion not met otherwise?

Q) Please tell me: is the molecule CC(C)N(CC(O)CO/N=C1\CCCCC\C1=C/c1ccccc1)C(C)C (racemic) at or over -40% in terms of change in vivo at 4 mg/kg?
A) criterion not met

Q) Please tell me: is the molecule CC(C)NCC(O)CO/N=C1\CCCCCC\C1=C/c1ccccc1 (racemic) at or over -40% in terms of change in vivo at 4 mg/kg?
A) criterion not met

Q) Please tell me: is the molecule COc1ccc([C@@H]2Sc3ccccc3N(CCN(C)C)C(=O)[C@@H]2OC(C)=O)cc1 [Dilthiazem, reference compound] at or over -40% in terms of change in vivo at 4 mg/kg?
A) criterion met

Q) Please tell me: is the molecule OC(CO/N=C1\CCCC\C1=C/c1ccccc1)CN1CCC(Cc2ccccc2)CC1 (racemic) at or over -40% in terms of change in vivo at 4 mg/kg?
A) criterion not met

Q) Please tell me: is the molecule CC(C)(C)NCC(O)CO/N=C1\CCCC\C1=C/c1ccccc1 (racemic) at or over -40% in terms of change in vivo at 4 mg/kg?
A) criterion not met

Q) Please tell me: is the molecule CC(C)NCC(O)COc1cccc2ccccc12 (stereo not drawn) [Propranolol, reference compound] at or over -40% in terms of change in vivo at 4 mg/kg?
A) criterion met
